composite z-score listing for selected compounds.
# procedure.details: small-molecule binders of probe aLefty1, primary screen, biochemical, small-molecule microarray, 635/667 nm fluorescence (AID 1153);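 note: score merges spot fluorescence with signal-to-noise ratio from the scanned slide images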
# conditions.used: higher = more signal
Give the value as a plain number.

[[record]]
compound = "CC(CCN1CCCCc2nc(C)c(C)cc21)=NOC(C)CN1CCCc2nc(C)c(C)cc21 (stereo not given)"
measured_result = 0.79


Report composite z-score for C[C@@H]1C=CCC(=O)OC[C@H](C)C(=O)N2CCC[C@H]2C(=O)OC1
-0.384

Give the reported composite z-score for this compound. CCCNC(=O)OC[C@H]1O[C@H](CCON=C[C@@H](OC)[C@H](C)C=CCC(=O)OC)C=C[C@@H]1Oc1ccc(OC)cc1
0.0889

Output composite z-score of CO[C@@H]1COC(=O)CC=C[C@@H](C)[C@@H]2C=C[C@H](O)[C@@H](COC(=O)[C@H](C)NC(=O)CC=C[C@H]1C)O2
-0.626

# return recorded composite z-score for input CN(C)CCCNC(=O)[C@@H]1c2ccccc2C(=O)N(Cc2ccccc2)[C@H]1c1ccc(CO)cc1
-0.163

Please give measured composite z-score of the following entry: CN1C(=O)C2C=CC(C(O)c3ccc(Br)cc3)N(N(c3ccccc3)c3ccccc3)C2C1=O (stereo not given)
0.446

Determine its reported composite z-score: CN(C)C(=O)[C@@]1(Cc2ccccc2)N=C(c2ccc(OCCCO)cc2)O[C@H]1c1ccccc1CN=[N+]=[N-]
0.981

Specify reported composite z-score for the compound shown: O=C1[C@H]2[C@H]3[C@H](O)[C@H](O)CC(=NOCc4ccccc4)[C@H]3CC[C@H]2C(=O)N1c1cccc(Oc2ccccc2)c1
-0.0193

Please list composite z-score recorded for the compound Cc1ccc(F)cc1S(=O)(=O)N[C@@H]1CCN(Cc2ccc(CC(C)C)cc2)C1
-0.146

###

# procedure.details: small-molecule binders of probe aNOTCH3, primary screen, biochemical, small-molecule microarray, 635/667 nm fluorescence (AID 1120);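 note: probe is a biotin-tagged antibody raised against NOTCH3 rather than NOTCH3 protein; score merges spot fluorescence near 667 nm with spot signal to noise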
# conditions.used: higher = more signal
Label scheme for composite z-score: lower than 0.3 is no (0), 0.3 and above is yes (1).

composite z-score >= 0.3 for C[C@H](c1ccccc1)N1C(=O)[C@H]2[C@H]3[C@H](O)[C@H](O)CC(=O)[C@@H]3CC[C@H]2C1=O ?
no (0)

composite z-score >= 0.3 for COC(=O)C1=C(C)[C@@H](O)[C@@H](C)[C@H](c2c(OC)c(OC)c(C)c(OC)c2OC)O1 ?
no (0)

Is reported composite z-score greater than or equal to 0.3 here: C=CC[C@@H]1C=C[C@H](ON=C(C)CCN2CCc3nc(CC)c(CC)cc3C2)[C@@H](CO)O1
yes (1)

###

# experimental.target: Neurogenic locus notch homolog protein 3 (Homo sapiens) (UniProt Q9UM47)
# Sequence (Q9UM47 whole entry, looked up): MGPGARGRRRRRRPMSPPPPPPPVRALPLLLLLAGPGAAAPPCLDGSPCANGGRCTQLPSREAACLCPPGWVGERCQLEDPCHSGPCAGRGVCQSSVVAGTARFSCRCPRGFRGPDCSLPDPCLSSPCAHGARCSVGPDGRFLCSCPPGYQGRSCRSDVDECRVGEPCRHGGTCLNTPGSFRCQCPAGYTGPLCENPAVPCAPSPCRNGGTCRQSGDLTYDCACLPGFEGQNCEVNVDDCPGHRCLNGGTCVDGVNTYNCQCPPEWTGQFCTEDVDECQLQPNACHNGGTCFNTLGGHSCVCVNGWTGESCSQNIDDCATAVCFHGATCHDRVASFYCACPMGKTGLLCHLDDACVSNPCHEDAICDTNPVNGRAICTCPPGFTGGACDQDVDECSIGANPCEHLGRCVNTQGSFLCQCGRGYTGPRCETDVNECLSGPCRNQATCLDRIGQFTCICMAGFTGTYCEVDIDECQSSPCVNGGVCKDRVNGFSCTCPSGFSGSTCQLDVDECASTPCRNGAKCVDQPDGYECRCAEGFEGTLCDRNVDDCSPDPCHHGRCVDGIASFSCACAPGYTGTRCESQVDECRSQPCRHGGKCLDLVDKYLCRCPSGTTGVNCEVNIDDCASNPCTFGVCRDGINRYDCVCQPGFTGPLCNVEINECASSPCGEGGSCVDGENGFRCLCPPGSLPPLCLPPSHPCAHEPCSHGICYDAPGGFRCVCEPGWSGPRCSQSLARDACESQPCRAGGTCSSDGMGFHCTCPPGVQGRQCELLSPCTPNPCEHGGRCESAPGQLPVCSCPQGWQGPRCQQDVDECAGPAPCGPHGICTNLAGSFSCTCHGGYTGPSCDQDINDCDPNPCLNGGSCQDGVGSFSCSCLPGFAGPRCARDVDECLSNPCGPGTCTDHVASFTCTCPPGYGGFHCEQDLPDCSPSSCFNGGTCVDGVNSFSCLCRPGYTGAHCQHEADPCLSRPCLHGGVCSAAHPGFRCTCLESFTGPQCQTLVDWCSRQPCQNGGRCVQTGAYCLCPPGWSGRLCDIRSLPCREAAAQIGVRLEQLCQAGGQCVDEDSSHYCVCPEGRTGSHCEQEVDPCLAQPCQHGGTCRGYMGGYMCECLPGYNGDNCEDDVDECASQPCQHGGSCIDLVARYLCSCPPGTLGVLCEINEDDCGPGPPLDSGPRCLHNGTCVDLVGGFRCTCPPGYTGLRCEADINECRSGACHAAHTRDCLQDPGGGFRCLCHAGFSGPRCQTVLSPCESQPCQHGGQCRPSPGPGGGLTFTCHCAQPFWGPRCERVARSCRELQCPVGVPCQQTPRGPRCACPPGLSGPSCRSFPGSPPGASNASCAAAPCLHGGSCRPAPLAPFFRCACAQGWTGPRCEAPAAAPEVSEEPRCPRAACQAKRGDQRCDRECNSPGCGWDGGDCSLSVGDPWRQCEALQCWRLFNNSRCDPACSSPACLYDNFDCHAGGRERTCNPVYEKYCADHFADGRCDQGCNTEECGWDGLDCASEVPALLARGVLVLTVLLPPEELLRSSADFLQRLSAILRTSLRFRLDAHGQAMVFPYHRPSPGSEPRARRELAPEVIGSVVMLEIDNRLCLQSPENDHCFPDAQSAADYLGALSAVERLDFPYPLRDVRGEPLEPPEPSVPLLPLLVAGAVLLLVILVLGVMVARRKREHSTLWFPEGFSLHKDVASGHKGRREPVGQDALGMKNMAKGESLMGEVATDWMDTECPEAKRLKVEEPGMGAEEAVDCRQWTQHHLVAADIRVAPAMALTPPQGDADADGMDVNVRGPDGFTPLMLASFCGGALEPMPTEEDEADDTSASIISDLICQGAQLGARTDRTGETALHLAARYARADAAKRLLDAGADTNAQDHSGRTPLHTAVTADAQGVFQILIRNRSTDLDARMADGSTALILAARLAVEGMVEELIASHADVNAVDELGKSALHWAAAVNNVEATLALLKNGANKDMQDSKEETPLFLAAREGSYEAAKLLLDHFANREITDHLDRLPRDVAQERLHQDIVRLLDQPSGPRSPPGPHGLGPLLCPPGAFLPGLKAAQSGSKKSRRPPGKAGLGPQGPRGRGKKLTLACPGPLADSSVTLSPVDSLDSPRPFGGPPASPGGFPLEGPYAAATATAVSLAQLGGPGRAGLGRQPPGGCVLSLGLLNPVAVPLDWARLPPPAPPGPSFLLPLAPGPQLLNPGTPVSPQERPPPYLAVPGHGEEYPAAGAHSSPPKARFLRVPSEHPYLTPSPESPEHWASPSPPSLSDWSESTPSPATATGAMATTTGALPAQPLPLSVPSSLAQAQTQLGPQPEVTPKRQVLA
# procedure.details: NOTCH3 binders on small-molecule microarray, primary screen, biochemical, 635/667 nm fluorescence (AID 1096)
# conditions.used: NOTCH3 binding, 635 nm fluorescence, higher = more signal
Kind request: treat 0.7 as inclusive, so composite z-score at 0.7 or higher is condition met, anything lower is condition not met.

[[record]]
molecule = "CC(CCN1CCc2nc(-c3ccccc3)c(-c3ccccc3)cc2C1)=NO[C@@H](C)c1cn([C@H](CO)Cc2ccccc2)nn1"
experimental_target = "Neurogenic locus notch homolog protein 3 (Homo sapiens) (UniProt Q9UM47)"
discrete_label = "condition not met"


Evaluate C=C(COC)/C(=C/C[C@H](OC(=O)c1ccncc1)c1ccc(CO)o1)c1cc(C(=O)OC)ccc1OC : composite z-score at minimum 0.7?
condition met

Hello, I need to know if Cc1cc(C)c(-c2cc([C@H](C)ON=C3[C@H]4CCn5c(=O)n(-c6ccccc6)c(=O)n5[C@H]4[C@H](O)[C@@H]4O[C@H]34)on2)c(C)c1 has measured composite z-score not below 0.7. Thanks!
condition met

Assess whether reported composite z-score for COCCOC(=O)N1C(=O)[C@@]2(c3cc(C#Cc4ccc(OC)cc4)ccc31)[C@H](C(=O)N1CCN(c3ncccn3)CC1)[C@H]1C(=O)O[C@H](c3ccccc3)[C@H](c3ccccc3)N1[C@@H]2c1ccc(OCCO)cc1 sits at 0.7 or higher.
condition met

Could you verify whether the entry CCN1C(=O)[C@H]2[C@H]3[C@H](O)[C@H](O)CC(=NO[C@@H]4O[C@H](CO)[C@@H](O)[C@H](O)[C@H]4O)[C@@H]3CC[C@H]2C1=O shows composite z-score of no less than 0.7?
condition not met

Is it the case that CO[C@H]1O[C@H](CO)[C@@H](OC(=O)Nc2ccc3c(c2)OCO3)[C@H](OC(=O)Nc2ccccc2-c2ccccc2)[C@@H]1OC(=O)Nc1ccccc1-c1ccccc1 has composite z-score reaching or exceeding 0.7?
condition met

hey, is composite z-score for this one >= 0.7? CC(C)(C)N1C(=O)[C@H]2[C@H]3[C@H](O)[C@H](O)CC(=NO[C@@H]4O[C@H](CO)[C@@H](O)[C@H](O)[C@H]4O)[C@@H]3CC[C@H]2C1=O
condition met

Determine whether this molecule has composite z-score no lower than 0.7: C=COC[C@H]1CN2[C@@H](CC[C@@H](C)[C@@H]2c2ccc(Br)cc2)C(=O)O1
condition not met

Check if composite z-score >= 0.7 (inclusive). Item: CC(C)[C@H](NC(=O)OC(C)(C)C)[C@@H](O)CC(=O)OC(C)(C)C
condition not met

Given the entry CCc1cc2c(nc1CC)CCN(CCC(C)=NOC(C)CN1CCCc3nc(C)c(C)cc31)C2 (centres undefined) , answer whether its composite z-score meets or surpasses 0.7.
condition met

Exam item: decide whether the reported composite z-score for c1ccc(C2NCCc3c2[nH]c2ccccc32)cc1 (centres undefined) is at least 0.7.
condition not met

Check the entry C=C(/C(=C/C[C@H](OC(C)=O)c1ccc(OCCO)cc1)c1cnc2ccccc2c1)C(C)C : does composite z-score equal or exceed 0.7?
condition met

Say whether CC(C)CON=C1[C@H]2CCn3c(=O)n(-c4ccccc4)c(=O)n3[C@H]2[C@H](O)[C@@H]2O[C@H]12 shows composite z-score of 0.7 or more.
condition met

Reference for the values: PubChem BioAssay
